# System: DOK (Oral Cavity Carcinoma);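 note: after 72 h of two-drug dosing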
# experimental.details: Bliss excess, mean over the matrix (fraction); higher = more synergy
Reported values of Bliss excess for individual entries
# print the numeric value only

INSERT INTO assay_data (compound, test_system, parameter, value_reported) VALUES
  ('C=CCn1c(=O)c2cnc(Nc3ccc(N4CCN(C)CC4)cc3)nc2n1-c1cccc(C(C)(C)O)n1 [AZD1775] + Nc1ccn([C@@H]2O[C@H](CO)[C@@H](O)C2(F)F)c(=O)n1 [Gemcitabine] (first compound max 1 µM, partner max 0.3 µM)', 'DOK (Oral Cavity Carcinoma)', 'Bliss excess', -0.0216),
  ('Cc1cc2ncnn2cc1Nc1ncc2c(n1)n(C1CCOCC1)c(=O)n2C [AZD7648] + O=C(c1cc(Cc2n[nH]c(=O)c3ccccc23)ccc1F)N1CCN(C(=O)C2CC2)CC1 [Olaparib] (first compound max 10 µM, 7x7, partner max 10 µM)', 'DOK (Oral Cavity Carcinoma)', 'Bliss excess', -0.0334),
  ('Cc1c2c(nn1C)CSCc1cc(n(C)n1)CSc1cc(c3ccccc3c1)OCCCc1c(C(=O)O)n(C)c3c-2c(Cl)ccc13 [AZD5991] + CC1(C)CCC(CN2CCN(c3ccc(C(=O)NS(=O)(=O)c4ccc(NCC5CCOCC5)c([N+](=O)[O-])c4)c(Oc4cnc5[nH]ccc5c4)c3)CC2)=C(c2ccc(Cl)cc2)C1 [Venetoclax] (first compound max 1 µM, 7x7, partner max 1 µM)', 'DOK (Oral Cavity Carcinoma)', 'Bliss excess', 0.0712),
  ('CC1(C)CCC(CN2CCN(c3ccc(C(=O)NS(=O)(=O)c4ccc(NCC5CCOCC5)c([N+](=O)[O-])c4)c(Oc4cnc5[nH]ccc5c4)c3)CC2)=C(c2ccc(Cl)cc2)C1 [Venetoclax] + Cn1cnc2c(F)c(Nc3ccc(Br)cc3Cl)c(C(=O)NOCCO)cc21 [Selumetinib] (first compound max 1 µM, 7x7, partner max 3 µM)', 'DOK (Oral Cavity Carcinoma)', 'Bliss excess', -0.0258),
  ('CN(C)CCCOc1ccc(-c2ccc3ncc4c(c3c2)n(C2CCOCC2)c(=O)n4C)cn1 [AZD0156] + CCN(CCO)CCCOc1ccc2c(Nc3cc(CC(=O)Nc4cccc(F)c4)[nH]n3)ncnc2c1 [AZD2811] (first compound max 1 µM, 7x7, partner max 1 µM)', 'DOK (Oral Cavity Carcinoma)', 'Bliss excess', -0.0527);

Prompt: Please look up its Bliss excess: CN(CCO)CC[C@H](CSc1ccccc1)Nc1ccc(S(=O)(=O)NC(=O)c2ccc(N3CCC([C@@H](O)c4ccccc4-c4ccc(Cl)cc4)CC3)cc2)cc1S(=O)(=O)C(F)(F)F [AZD4320] + Nc1ccn([C@@H]2O[C@H](CO)[C@@H](O)C2(F)F)c(=O)n1 [Gemcitabine] (first compound max 1 µM, 7x7, partner max 0.3 µM)
Response: 0.0797

Prompt: Also need CN(CCO)CC[C@H](CSc1ccccc1)Nc1ccc(S(=O)(=O)NC(=O)c2ccc(N3CCC([C@@H](O)c4ccccc4-c4ccc(Cl)cc4)CC3)cc2)cc1S(=O)(=O)C(F)(F)F [AZD4320] + Cn1cnc2c(F)c(Nc3ccc(Br)cc3Cl)c(C(=O)NOCCO)cc21 [Selumetinib] (first compound max 1 µM, 7x7, partner max 3 µM) , thanks.
Response: -0.0003

###

# Tested on: Saos-2 (Osteosarcoma)
# experimental.details: combination Emax (second highest fraction inhibited in the dose matrix, 72 h); higher = more inhibition; extreme values may be limits of the assay
Reported values of combination Emax for individual entries

INSERT INTO results (molecule, value_reported) VALUES
  ('CC1(C)CCC(CN2CCN(c3ccc(C(=O)NS(=O)(=O)c4ccc(NCC5CCOCC5)c([N+](=O)[O-])c4)c(Oc4cnc5[nH]ccc5c4)c3)CC2)=C(c2ccc(Cl)cc2)C1 [Venetoclax] + CCN(CCO)CCCOc1ccc2c(Nc3cc(CC(=O)Nc4cccc(F)c4)[nH]n3)ncnc2c1 [AZD2811] (first compound max 1 µM, 7x7, partner max 1 µM)', 0.648);

Then there is this molecule:
Prompt: Please look up its combination Emax: CC1(C)CCC(CN2CCN(c3ccc(C(=O)NS(=O)(=O)c4ccc(NCC5CCOCC5)c([N+](=O)[O-])c4)c(Oc4cnc5[nH]ccc5c4)c3)CC2)=C(c2ccc(Cl)cc2)C1 [Venetoclax] + CS(=O)(=O)CCNCc1ccc(-c2ccc3ncnc(Nc4ccc(OCc5cccc(F)c5)c(Cl)c4)c3c2)o1 [Lapatinib] (first compound max 1 µM, 7x7, partner max 10 µM)
Response: 0.214

###

# Test system: SLVL (B-Cell Non-Hodgkin's Lymphoma)
# experimental.details: combination Emax (second highest fraction inhibited in the dose matrix, 72 h); higher = more inhibition; extreme values may be limits of the assay
parameter: combination Emax
# print the numeric value only

Guide cases for combination Emax, answers given:
INSERT INTO assay_data (compound, test_system, value_reported) VALUES
  ('O=C(c1cc(Cc2n[nH]c(=O)c3ccccc23)ccc1F)N1CCN(C(=O)C2CC2)CC1 [Olaparib] + CN(CC[C@H](CSC1=CC=CC=C1)NC2=C(C=C(C=C2)S(=O)(=O)NC(=O)C3=CC=C(C=C3)N4CCC(CC4)[C@H](C5=CC=CC=C5C6=CC=C(C=C6)Cl)O)S(=O)(=O)C(F)(F)F)CCO [AZD4320] (first compound max 10 µM, 7x7, partner max 1 µM)', 'SLVL (B-Cell Non-Hodgkin''s Lymphoma)', 0.982),
  ('C=CCn1c(=O)c2cnc(Nc3ccc(N4CCN(C)CC4)cc3)nc2n1-c1cccc(C(C)(C)O)n1 [AZD1775] + C1CN(CCC1(C(=O)N[C@@H](CCO)C2=CC=C(C=C2)Cl)N)C3=NC=NC4=C3C=CN4 [Capivasertib] (first compound max 3 µM, partner max 3 µM)', 'SLVL (B-Cell Non-Hodgkin''s Lymphoma)', 0.87),
  ('CCc1c2c(nc3ccc(O)cc13)-c1cc3c(c(=O)n1C2)COC(=O)[C@]3(O)CC [SN-38] + O=C(c1cc(Cc2n[nH]c(=O)c3ccccc23)ccc1F)N1CCN(C(=O)C2CC2)CC1 [Olaparib] (first compound max 0.3 µM, 7x7, partner max 10 µM)', 'SLVL (B-Cell Non-Hodgkin''s Lymphoma)', 1),
  ('CC1(C)CCC(CN2CCN(c3ccc(C(=O)NS(=O)(=O)c4ccc(NCC5CCOCC5)c([N+](=O)[O-])c4)c(Oc4cnc5[nH]ccc5c4)c3)CC2)=C(c2ccc(Cl)cc2)C1 [Venetoclax] + CCN(CCO)CCCOc1ccc2c(Nc3cc(CC(=O)Nc4cccc(F)c4)[nH]n3)ncnc2c1 [AZD2811] (first compound max 1 µM, 7x7, partner max 1 µM)', 'SLVL (B-Cell Non-Hodgkin''s Lymphoma)', 0.901),
  ('C=CCn1c(=O)c2cnc(Nc3ccc(N4CCN(C)CC4)cc3)nc2n1-c1cccc(C(C)(C)O)n1 [AZD1775] + C[C@@H]1COCCN1C2=NC(=NC(=C2)C3(CC3)[S@](=N)(=O)C)C4=C5C=CNC5=NC=C4 [AZD6738] (first compound max 1 µM, partner max 10 µM)', 'SLVL (B-Cell Non-Hodgkin''s Lymphoma)', 0.917),
  ('C[C@@H](Oc1cc(-c2cnn(C3CCNCC3)c2)cnc1N)c1c(Cl)ccc(F)c1Cl [Crizotinib] + Cn1cnc2c(F)c(Nc3ccc(Br)cc3Cl)c(C(=O)NOCCO)cc21 [Selumetinib] (first compound max 10 µM, 7x7, partner max 10 µM)', 'SLVL (B-Cell Non-Hodgkin''s Lymphoma)', 0.742);

Prompt: Please look up its combination Emax: COc1cccc(OCCCN)c1-c1cc(Nc2cnc(C#N)cn2)n[nH]1 [Prexasertib] + CCc1c2c(nc3ccc(O)cc13)-c1cc3c(c(=O)n1C2)COC(=O)[C@]3(O)CC [SN-38] (first compound max 1 µM, 7x7, partner max 0.3 µM)
Response: 0.968

###

# System: HLE (Hepatocellular Carcinoma)
# experimental.details: combination Emax (second highest fraction inhibited in the dose matrix, 72 h); higher = more inhibition; extreme values may be limits of the assay
parameter: combination Emax
# print the numeric value only

Prompt: Please look up its combination Emax: Cn1cnc2c(F)c(Nc3ccc(Br)cc3Cl)c(C(=O)NOCCO)cc21 [Selumetinib] + CC(C)n1c(=O)n(C)c2cnc3cc(F)c(-c4ccc(OCCCN5CCCCC5)nc4)cc3c21 [AZD1390] (first compound max 10 µM, 7x7, partner max 0.3 µM)
Response: 0.122

Prompt: Also need Cc1nc(Nc2ncc(C(=O)Nc3c(C)cccc3Cl)s2)cc(N2CCN(CCO)CC2)n1 [Dasatinib] + CC(=O)Nc1cccc(-n2c(=O)n(C3CC3)c(=O)c3c(Nc4ccc(I)cc4F)n(C)c(=O)c(C)c32)c1 [Trametinib] (first compound max 2 µM, 7x7, partner max 1 µM) , thanks.
Response: 0.414

Prompt: Also need CN(CCO)CC[C@H](CSc1ccccc1)Nc1ccc(S(=O)(=O)NC(=O)c2ccc(N3CCC([C@@H](O)c4ccccc4-c4ccc(Cl)cc4)CC3)cc2)cc1S(=O)(=O)C(F)(F)F [AZD4320] + C[C@@H]1COCCN1C2=NC(=NC(=C2)C3(CC3)[S@](=N)(=O)C)C4=C5C=CNC5=NC=C4 [AZD6738] (first compound max 1 µM, 7x7, partner max 10 µM) , thanks.
Response: 0.871
